Data provenance: patent US10259810B2

Biological target: ΔF508-CFTR (Homo sapiens, UniProt P13569, DEL508-508)
Construct: host or cells: CFBE41o-, doxycycline-inducible
Sequence (P13569 with tags, fused parts or gaps DEL508-508): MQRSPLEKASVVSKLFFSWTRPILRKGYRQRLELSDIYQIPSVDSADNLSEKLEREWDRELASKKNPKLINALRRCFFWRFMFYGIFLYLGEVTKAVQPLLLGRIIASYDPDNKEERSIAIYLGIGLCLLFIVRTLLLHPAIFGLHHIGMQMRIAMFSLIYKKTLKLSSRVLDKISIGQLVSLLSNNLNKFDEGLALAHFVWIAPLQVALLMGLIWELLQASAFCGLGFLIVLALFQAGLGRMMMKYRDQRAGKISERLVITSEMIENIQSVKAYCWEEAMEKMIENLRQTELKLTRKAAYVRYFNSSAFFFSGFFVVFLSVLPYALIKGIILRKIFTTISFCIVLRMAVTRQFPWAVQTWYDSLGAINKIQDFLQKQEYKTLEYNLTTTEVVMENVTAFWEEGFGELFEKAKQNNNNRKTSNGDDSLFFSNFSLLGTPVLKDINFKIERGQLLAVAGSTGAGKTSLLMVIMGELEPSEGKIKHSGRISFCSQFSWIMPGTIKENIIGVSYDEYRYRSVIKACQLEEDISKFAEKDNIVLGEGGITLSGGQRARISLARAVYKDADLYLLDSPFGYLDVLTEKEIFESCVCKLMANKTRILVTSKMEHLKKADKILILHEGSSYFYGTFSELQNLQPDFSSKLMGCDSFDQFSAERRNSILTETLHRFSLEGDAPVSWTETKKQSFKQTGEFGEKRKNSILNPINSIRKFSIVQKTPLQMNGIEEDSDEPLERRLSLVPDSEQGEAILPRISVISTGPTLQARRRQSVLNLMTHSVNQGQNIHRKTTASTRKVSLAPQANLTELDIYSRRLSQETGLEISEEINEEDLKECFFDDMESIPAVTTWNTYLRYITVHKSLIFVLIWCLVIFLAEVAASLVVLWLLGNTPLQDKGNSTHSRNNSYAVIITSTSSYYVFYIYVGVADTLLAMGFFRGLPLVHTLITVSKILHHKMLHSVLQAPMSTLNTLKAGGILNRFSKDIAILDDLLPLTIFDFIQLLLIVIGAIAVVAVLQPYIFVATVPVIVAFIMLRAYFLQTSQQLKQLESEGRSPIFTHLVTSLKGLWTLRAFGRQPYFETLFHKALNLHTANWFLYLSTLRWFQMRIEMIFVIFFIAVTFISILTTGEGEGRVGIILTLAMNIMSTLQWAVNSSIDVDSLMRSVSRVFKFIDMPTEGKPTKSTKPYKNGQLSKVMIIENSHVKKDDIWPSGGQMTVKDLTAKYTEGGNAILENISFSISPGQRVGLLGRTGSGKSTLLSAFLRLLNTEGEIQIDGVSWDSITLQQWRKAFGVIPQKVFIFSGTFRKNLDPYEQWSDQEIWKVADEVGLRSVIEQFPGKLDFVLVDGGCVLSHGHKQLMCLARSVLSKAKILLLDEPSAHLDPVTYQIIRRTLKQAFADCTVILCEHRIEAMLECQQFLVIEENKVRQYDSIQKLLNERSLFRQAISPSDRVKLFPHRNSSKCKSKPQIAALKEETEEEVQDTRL
Assay: CFTR cell surface levels using HRP-tagged ΔF508-CFTR expressing CFBE cells, in the presence of a co-corrector
Assay type: cell-based
Conditions: HRP-tagged ΔF508-CFTR CFBE cells, in the presence of 3 μM co-corrector
MEASUREMENT_NAME: % Activation
Please state the value followed by its unit.

Solved cases below.
molecule=COC1CCN(c2cc(C(=O)NS(C)(=O)=O)nc3c2c(C(C)C)nn3-c2ccnc(N3CCOCC3)c2)CC1 reported_result=308.87%
molecule=COc1ccc(-c2cc(C(=O)NS(C)(=O)=O)nc3c2c(C)nn3-c2cccc(C)c2)cc1 reported_result=365.2%
molecule=COCC1CCN(c2cc(C(=O)NS(C)(=O)=O)nc3c2c(C(C)C)nn3-c2ccc(=O)n(C)n2)CC1 reported_result=122.05%
molecule=CC(=O)N1CC[C@@H]2CN(c3cc(C(=O)NS(=O)(=O)CCCN4CCOCC4)nc4c3c(C3CCC3)nn4-c3ccccc3)CC[C@@H]21 reported_result=448.25%
molecule=COCC1CCN(c2cc(C(=O)NS(=O)(=O)c3cn(C)c(C)n3)nc3c2c(C2CCC2)nn3-c2ccccc2)CC1 reported_result=440.4%
molecule=CC(C)Oc1nn(C2CCCCC2)c2nc(C(=O)NS(=O)(=O)N(C)C)cc(-c3ccc(CN4CCCC4)cc3)c12 reported_result=361.3%
molecule=CC(C)Oc1nn(-c2ccccc2)c2nc(C(=O)NS(C)(=O)=O)cc(-c3ccc(N4CCOCC4)cc3)c12 reported_result=408.53%
molecule="CC1CN(c2ccc(-c3cc(C(=O)NS(C)(=O)=O)nc4c3c(C(C)C)nn4C3CCCCC3)cn2)CC(C)O1 (stereo not drawn)" reported_result=456.5%

# CS(=O)(=O)NC(=O)c1cc(-c2ccc(N3CCC(C#N)CC3)nc2)c2c(n1)n(-c1ccccc1)nc2[C@H]1C[C@@H](F)C1 with ΔF508-CFTR (Homo sapiens, UniProt P13569, DEL508-508): % Activation is 393.6%

# CC(C)c1nn(-c2ccnc(N3CCOCC3)c2)c2nc(C(=O)NS(C)(=O)=O)cc(OCC3CCOCC3)c12 with ΔF508-CFTR (Homo sapiens, UniProt P13569, DEL508-508): % Activation is 232.42%

# CN(C(=O)c1cc(N2CCC(N3CCOCC3)CC2)c2c(C3CCC3)nn(-c3ccc(F)cc3)c2n1)S(C)(=O)=O with ΔF508-CFTR (Homo sapiens, UniProt P13569, DEL508-508): % Activation is 347.6%

# CN(c1ccc(-c2cc(C(=O)NS(C)(=O)=O)nc3c2c(C2CCC2)nn3-c2ccccc2)cn1)C1CCOCC1 with ΔF508-CFTR (Homo sapiens, UniProt P13569, DEL508-508): % Activation is 424.82%

# CCS(=O)(=O)NC(=O)c1cc(-c2ccc(N3CCOCC3)nc2)c2c(C(C)C)nn(-c3ccccc3)c2n1 with ΔF508-CFTR (Homo sapiens, UniProt P13569, DEL508-508): % Activation is 509.7%

# COCC1CCN(c2cc(C(=O)NS(=O)(=O)CCCN3CCOCC3)nc3c2c(C(C)C)nn3-c2ccc(F)cc2)CC1 with ΔF508-CFTR (Homo sapiens, UniProt P13569, DEL508-508): % Activation is 451.2%
